Measured On: hGLP-1R (Homo sapiens, UniProt P43220)
Sequence (P43220 24-463): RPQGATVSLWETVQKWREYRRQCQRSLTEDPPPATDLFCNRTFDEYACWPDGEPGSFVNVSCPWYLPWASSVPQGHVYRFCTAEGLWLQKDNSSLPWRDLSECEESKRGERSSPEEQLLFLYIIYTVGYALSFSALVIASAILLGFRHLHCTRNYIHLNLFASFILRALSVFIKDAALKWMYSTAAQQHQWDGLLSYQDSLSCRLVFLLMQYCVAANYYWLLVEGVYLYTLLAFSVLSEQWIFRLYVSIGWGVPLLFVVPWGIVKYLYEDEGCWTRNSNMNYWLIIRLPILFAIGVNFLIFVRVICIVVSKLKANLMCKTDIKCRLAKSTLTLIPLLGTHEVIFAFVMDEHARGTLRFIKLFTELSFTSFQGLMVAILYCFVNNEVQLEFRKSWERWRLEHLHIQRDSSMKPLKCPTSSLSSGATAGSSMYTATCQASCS
Assay Details: cell-based or functional assay
Each entry below lists one item and its recorded Relative cAMP EC50 value.
Number in nM, nothing else.

Known Relative cAMP EC50 results, listed for orientation:
[
  {
    "Binder": "YXQGTFTSDFSXXLDKKAQXAFIEYLLEGGPSSGAPPPGES (synthetic construct; SITE 2: note = 2-Aminoisobutyric Acid; SITE 12: note = L-ornithine; SITE 13: note = alpha-methyl-leucine; SITE 17: note = Lysine is chemically modified through conjugation of the epsilon-amino group of the Lysine side chain with (2-[2-(2-Amino-ethoxy)-ethoxy]-acetyl)2-(gamma-Glu)) [Example 118]",
    "Relative cAMP EC50 / nM": 6.03
  },
  {
    "Binder": "YXQGTFTSDXSQXLDXKAQXAFIEYLIAGGPSSGEPPPSGSE (synthetic construct; SITE 2: note = 2-Aminoisobutyric Acid; SITE 10: note = 3-(4-Pyridyl)-L-alanine; SITE 13: note = alpha-methyl-leucine; SITE 16: note = L-ornithine; SITE 17: note = Lysine is chemically modified through conjugation of the epsilon-amino group of the Lysine side chain with (gamma-Gl)) [Example 977]",
    "Relative cAMP EC50 / nM": 1.1
  },
  {
    "Binder": "YXQATXTSDXXIXLDXKAQXEFIEXLIEGGPSSGAPPPSGS (synthetic construct; SITE 2: note = 2-Aminoisobutyric Acid; SITE 4: note = D-amino acid; SITE 6: note = alpha-methyl-2-fluoro-L-phenylalanine; SITE 10: note = 3-(4-Pyridyl)-L-alanine; SITE 11: note = alpha-methyl-L-serine; SITE 13: note = alpha-methyl-leucine; SITE 16: note = L-ornithine; SITE 17: n) [Example 1203]",
    "Relative cAMP EC50 / nM": 0.292
  }
]

Query string: Suppose we examine the binder YXQGTXTSDYXIXLDXKAQXXFIEYLLEGGPSSGAPPPS (synthetic construct; SITE 2: note = 2-Aminoisobutyric Acid; SITE 6: note = alpha-methyl-2-fluoro-L-phenylalanine; SITE 11: note = alpha-methyl-L-serine; SITE 13: note = alpha-methyl-leucine; SITE 16: note = L-ornithine; SITE 17: note = Lysine is chemically modified through conjugation of the epsilon) [Example 384] ; what Relative cAMP EC50 value has been reported?
Result string: 0.133

Query string: What about YXQGTFTSDFSQXLDKKAQXAFIEYLIEXGESSGAPPPSGS (non-natural residues (Aib, αMeL, αMe4Pal); lipidated K; C-terminal amide; synthetic construct; SITE 2: note = 2-Aminoisobutyric Acid; SITE 13: note = alpha-methyl-leucine; SITE 17: note = Lysine is chemically modified through conjugation of the epsilon-amino group of the Lysine side chain with (2-[2-(2-Amino-ethoxy)-ethoxy]-acetyl)-(gamma-Glu)-CO-(CH2) 16-CO2H; SITE 20: n) [Example 232] ?
Result string: 0.819

Query string: What about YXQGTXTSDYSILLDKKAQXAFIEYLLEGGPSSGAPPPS (not fully specified; synthetic construct; SITE 2: note = 2-Aminoisobutyric Acid; SITE 6: note = alpha-methyl-2-fluoro-L-phenylalanine; SITE 17: note = Lysine is chemically modified through conjugation of the epsilon-amino group of the Lysine side chain with (2-[2-(2-Amino-ethoxy)-ethoxy]-acetyl)2-(gamma-Glu)-CO-(CH2 )18) [Example 385] ?
Result string: 0.235
